Molecular target: T1, RapF (B. subtilis, UniProt P71002 1-381)
T1 construct: RapF of Bacillus subtilis, amplified from genomic DNA and cloned in pPROEX-HTa; The text speaks of residues up to Val381, which fits the whole protein; also called wild-type RapF; native RapF; source: E. coli BL21 RIL, purified (HisTrap, TEV digestion, Superdex 200); not shown: His6, N-terminal, cleaved
T1 sequence: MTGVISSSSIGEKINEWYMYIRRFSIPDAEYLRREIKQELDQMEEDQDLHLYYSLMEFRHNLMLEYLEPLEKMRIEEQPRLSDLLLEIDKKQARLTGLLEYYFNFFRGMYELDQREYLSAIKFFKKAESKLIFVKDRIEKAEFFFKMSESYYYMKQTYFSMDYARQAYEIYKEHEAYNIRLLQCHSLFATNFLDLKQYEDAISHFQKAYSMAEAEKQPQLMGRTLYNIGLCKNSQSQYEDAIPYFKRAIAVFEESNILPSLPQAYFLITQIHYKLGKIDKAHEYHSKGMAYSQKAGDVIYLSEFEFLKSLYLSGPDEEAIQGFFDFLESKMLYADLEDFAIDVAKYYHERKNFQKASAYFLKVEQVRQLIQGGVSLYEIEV
Test: native gel or EMSA; titration on 8% native gel; 20 µg protein, peptide 50 nM to 1.2 mM in 20 µl buffer A, 15 min at room temperature; midpoint of the transition taken as the apparent Kd
Conditions: both partners purified
QUANTITY_NAME: Kd (µM)
Give a bare numeral; the unit µM is implied.

May I ask what Kd has been recorded for QRGMI (mature active form of the PhrF precursor; The purchase from Genescript is stated for the crystallisation; no other source is named; also called PhrF peptide; source: bought: Genescript) [PhrF] ? 3.1
